B1: Cyclic AMP-dependent transcription factor ATF-4 (Homo sapiens), P18848 (parent)
chain: MTEMSFLSSEVLVGDLMSPFDQSGLGAEESLGLLDDYLEVAKHFKPHGFSSDKAKAGSSEWLAVDGLVSPSNNSKEDAFSGTDWMLEKMDLKEFDLDALLGIDDLETMPDDLLTTLDDTCDLFAPLVQETNKQPPQTVNPIGHLPESLTKPDQVAPFTFLQPLPLSPGVLSSTPDHSFSLELGSEVDITEGDRKPDYTAYVAMIPQCIKEEDTPSDNDSGICMSPESYLGSPQHSPSTRGSPNRSLPSPGVLCGSARPKPYDPPGEKMVAAKVKGEKLDKKLKKMEQNKTAATRYRQKKRAEQEALTGECKELEKKNEALKERADSLAKEIQYLKDLIEEVRKARGKKRVP
partner: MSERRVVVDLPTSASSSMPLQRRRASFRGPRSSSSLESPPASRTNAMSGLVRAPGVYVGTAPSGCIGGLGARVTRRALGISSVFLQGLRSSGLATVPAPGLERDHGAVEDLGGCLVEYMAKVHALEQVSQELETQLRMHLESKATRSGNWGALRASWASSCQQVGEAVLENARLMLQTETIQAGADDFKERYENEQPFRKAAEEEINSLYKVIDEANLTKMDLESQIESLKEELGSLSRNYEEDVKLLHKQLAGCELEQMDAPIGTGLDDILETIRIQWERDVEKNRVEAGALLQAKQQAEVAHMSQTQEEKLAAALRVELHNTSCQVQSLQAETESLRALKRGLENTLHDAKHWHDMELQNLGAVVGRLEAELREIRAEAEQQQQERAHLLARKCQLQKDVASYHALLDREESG

Variants of: B1
DETAILS: with bfsp2_human BFSP2, Q13515
OBSERVED PROPERTY: effect of a mutation on the interaction

VARIANT CODE	REPORTED RESULT
A324V	with no effect
P258A	with no effect
T137S	with no effect
